# TARGET DESC: PI3K-gamma (Homo sapiens, UniProt P48736)
# Sequence (P48736 whole entry, species assumed): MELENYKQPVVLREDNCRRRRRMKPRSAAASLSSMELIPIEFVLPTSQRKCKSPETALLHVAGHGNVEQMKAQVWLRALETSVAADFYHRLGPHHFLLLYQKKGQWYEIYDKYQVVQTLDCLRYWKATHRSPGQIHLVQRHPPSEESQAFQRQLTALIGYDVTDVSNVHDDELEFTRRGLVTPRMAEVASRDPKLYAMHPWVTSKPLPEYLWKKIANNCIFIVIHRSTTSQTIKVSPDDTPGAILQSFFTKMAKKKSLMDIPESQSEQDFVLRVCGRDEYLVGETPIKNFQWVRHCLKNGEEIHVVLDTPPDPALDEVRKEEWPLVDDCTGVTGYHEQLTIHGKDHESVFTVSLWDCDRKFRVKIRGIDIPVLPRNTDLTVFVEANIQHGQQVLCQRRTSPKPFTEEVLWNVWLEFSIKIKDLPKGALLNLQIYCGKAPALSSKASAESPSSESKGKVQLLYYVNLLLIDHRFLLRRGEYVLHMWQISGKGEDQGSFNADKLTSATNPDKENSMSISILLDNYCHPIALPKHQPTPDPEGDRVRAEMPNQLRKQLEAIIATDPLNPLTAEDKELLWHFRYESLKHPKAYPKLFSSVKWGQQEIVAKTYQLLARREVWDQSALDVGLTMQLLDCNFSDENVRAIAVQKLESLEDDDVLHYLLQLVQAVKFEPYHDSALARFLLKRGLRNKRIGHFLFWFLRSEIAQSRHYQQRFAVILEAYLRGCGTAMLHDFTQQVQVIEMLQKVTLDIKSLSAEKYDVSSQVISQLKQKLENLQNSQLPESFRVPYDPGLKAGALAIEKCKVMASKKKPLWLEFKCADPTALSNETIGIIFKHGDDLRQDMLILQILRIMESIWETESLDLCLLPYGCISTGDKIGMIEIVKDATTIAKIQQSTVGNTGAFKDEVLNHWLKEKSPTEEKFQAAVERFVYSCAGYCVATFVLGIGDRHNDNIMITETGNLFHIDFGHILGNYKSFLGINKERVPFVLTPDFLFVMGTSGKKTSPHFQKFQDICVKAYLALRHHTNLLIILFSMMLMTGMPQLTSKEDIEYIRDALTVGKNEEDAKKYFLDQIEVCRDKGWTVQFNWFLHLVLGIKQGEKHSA
pIC50 values by entry
Scale: pIC50 equals -log10([C]), with [C] in mol/L.

The cases that follow already have their pIC50 on record.
[[record]]
structure_notation = "CN1CCN(Cc2ccc(NC(=O)Nc3ccc(-c4nc(NC5CCOCC5)cc(N5C6CCC5COC6)n4)cc3)cc2)CC1"
numeric_readout = 5.66

[[record]]
structure_notation = "C[C@@H]1COCCN1c1cc(N2C3CCC2COC3)nc(-c2ccc(NC(=O)Nc3ccc(C(=O)N(C)C)cc3)cc2)n1"
numeric_readout = 5.79

[[record]]
structure_notation = "CN1CCN(Cc2ccc(NC(=O)Nc3ccc(-c4nc(NCCS(C)(=O)=O)cc(N5C6CCC5COC6)n4)cc3)cc2)CC1"
numeric_readout = 4.97

[[record]]
structure_notation = "O=C(Nc1ccncc1)Nc1ccc(-c2nc(C3CCOCC3)cc(N3C4CCC3COC4)n2)cc1"
numeric_readout = 5.10

[[record]]
structure_notation = "C[C@@H]1COCCN1c1cc(N2C3CCC2COC3)nc(-c2ccc(NC(=O)Nc3ccc(CN4CCN(C)CC4)cc3)cc2)n1"
numeric_readout = 5.07

[[record]]
structure_notation = "CN1CCN(c2ccc(NC(=O)Nc3ccc(-c4nc(N5C6CCC5COC6)cc(N5C[C@H]6C[C@@H]5CO6)n4)cc3)cc2)CC1"
numeric_readout = 5.06


Given the entry `CC(C)N1CCN(C(=O)c2ccc(NC(=O)Nc3ccc(-c4nc(N5C[C@@H](C)O[C@@H](C)C5)cc(N5C6CCC5COC6)n4)cc3)cc2)CC1` , what pIC50 was observed with PI3K-gamma (Homo sapiens, UniProt P48736)? 6.04

Ok, now `C[C@@H]1COCCN1c1cc(N2C3CCC2COC3)nc(-c2ccc(NC(=O)Nc3ccc(N4CCN(C)CC4)nc3)cc2)n1` 5.53

Ok, now `CC(C)N1CCN(C(=O)c2ccc(NC(=O)Nc3ccc(-c4nc(N5C6CCC5COC6)cc(N5CCOC[C@H]5C)n4)cc3)cc2)CC1` 5.92

Ok, now `CC(C)Nc1cc(N2C3COCC2COC3)nc(-c2ccc(NC(=O)Nc3ccc(N4CCN(C)CC4)cc3)cc2)n1` 5.10

Ok, now `C[C@@H]1COCCN1c1cc(N2C3CCC2COC3)nc(-c2ccc(NC(=O)Nc3ccc(C(=O)N4CCN(C)CC4)cc3)cc2)n1` 5.95

Ok, now `CN1CCN(C(=O)c2ccc(NC(=O)Nc3ccc(-c4nc(C5CCOCC5)cc(N5C6CCC5COC6)n4)cc3)cc2)CC1` 5.52

Ok, now `O=C(Nc1ccncc1)Nc1ccc(-c2nc(NC3CCOCC3)cc(N3C4CCC3COC4)n2)cc1` 4.92

The origin of these recorded values is patent US8835429B2.
